test system: 126254-015-R-J1-PDC complex spheroid growth, % test/control; assay: Anticancer human tumor 126254-015-R-J1-PDC patient-derived soft tissue sarcoma cell line growth inhibition [Asc]; settings: curve of first compound; second compound 0.316 µM;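 note: spheroids exposed to compound for seven days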
Property: IC50 (µM)
Give the value, in units of µM, as a plain number.

Lookup: May I ask what IC50 has been recorded for Cc1nc(N2CCC3(CC2)COC(C)C3N)c(CO)nc1Sc1ccnc(N)c1Cl (configuration not stated) + Cc1c(S(C)(=O)=O)c(-c2cc(F)cc(N3CCN(c4ccc(NS(=O)(=O)c5ccc(NC(CCN6CCC(C(=O)OCCCP(=O)(O)O)CC6)CSc6ccccc6)c(S(=O)(=O)C(F)(F)F)c5)cc4)CC3)c2)c(-c2ccc(Cl)cc2)n1C(C)C ?
Found: 0.451

Source: PubChem BioAssay AID1963429
